TESTED TARGET: RSK2 (Homo sapiens, UniProt P51812)
Sequence (P51812 whole entry): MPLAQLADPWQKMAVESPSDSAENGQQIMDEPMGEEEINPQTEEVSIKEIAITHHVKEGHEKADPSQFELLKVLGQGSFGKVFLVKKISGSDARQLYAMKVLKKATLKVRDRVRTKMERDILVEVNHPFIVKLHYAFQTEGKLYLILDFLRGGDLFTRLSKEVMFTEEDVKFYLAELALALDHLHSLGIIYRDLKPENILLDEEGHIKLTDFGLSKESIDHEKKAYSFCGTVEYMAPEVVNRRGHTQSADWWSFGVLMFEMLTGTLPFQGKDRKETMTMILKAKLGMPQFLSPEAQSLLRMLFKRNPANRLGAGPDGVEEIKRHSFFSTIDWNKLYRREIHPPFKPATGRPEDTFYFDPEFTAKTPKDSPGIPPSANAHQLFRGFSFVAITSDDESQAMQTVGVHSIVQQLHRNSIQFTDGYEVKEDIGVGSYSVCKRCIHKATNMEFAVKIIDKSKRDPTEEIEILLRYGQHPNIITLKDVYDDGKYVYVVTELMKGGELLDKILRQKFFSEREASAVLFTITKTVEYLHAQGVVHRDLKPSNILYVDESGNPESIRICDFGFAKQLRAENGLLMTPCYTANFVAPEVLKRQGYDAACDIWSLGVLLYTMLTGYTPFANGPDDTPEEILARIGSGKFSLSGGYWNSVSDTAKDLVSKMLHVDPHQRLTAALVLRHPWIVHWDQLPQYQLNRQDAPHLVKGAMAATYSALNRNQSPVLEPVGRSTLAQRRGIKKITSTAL
METHOD DESCRIPTION: in vitro kinase assay with recombinant active RSK2 and ATF1 substrate (Western blot); supported by pull-down of recombinant RSK2 with carnosol-Sepharose 4B beads
OUTCOME MEASURE: IC50

Query IC50 for "CC(C)c1cc2c(c(O)c1O)[C@@]13CCCC(C)(C)[C@@H]1C[C@@H]2OC3=O" ~5.5 µM
